Here the recorded pIC50 is given for each entry.
- test-system: Nucleotide-binding oligomerization domain-containing protein 1 (Homo sapiens)
- Sequence (Q9Y239 whole entry, the tested form may be a part): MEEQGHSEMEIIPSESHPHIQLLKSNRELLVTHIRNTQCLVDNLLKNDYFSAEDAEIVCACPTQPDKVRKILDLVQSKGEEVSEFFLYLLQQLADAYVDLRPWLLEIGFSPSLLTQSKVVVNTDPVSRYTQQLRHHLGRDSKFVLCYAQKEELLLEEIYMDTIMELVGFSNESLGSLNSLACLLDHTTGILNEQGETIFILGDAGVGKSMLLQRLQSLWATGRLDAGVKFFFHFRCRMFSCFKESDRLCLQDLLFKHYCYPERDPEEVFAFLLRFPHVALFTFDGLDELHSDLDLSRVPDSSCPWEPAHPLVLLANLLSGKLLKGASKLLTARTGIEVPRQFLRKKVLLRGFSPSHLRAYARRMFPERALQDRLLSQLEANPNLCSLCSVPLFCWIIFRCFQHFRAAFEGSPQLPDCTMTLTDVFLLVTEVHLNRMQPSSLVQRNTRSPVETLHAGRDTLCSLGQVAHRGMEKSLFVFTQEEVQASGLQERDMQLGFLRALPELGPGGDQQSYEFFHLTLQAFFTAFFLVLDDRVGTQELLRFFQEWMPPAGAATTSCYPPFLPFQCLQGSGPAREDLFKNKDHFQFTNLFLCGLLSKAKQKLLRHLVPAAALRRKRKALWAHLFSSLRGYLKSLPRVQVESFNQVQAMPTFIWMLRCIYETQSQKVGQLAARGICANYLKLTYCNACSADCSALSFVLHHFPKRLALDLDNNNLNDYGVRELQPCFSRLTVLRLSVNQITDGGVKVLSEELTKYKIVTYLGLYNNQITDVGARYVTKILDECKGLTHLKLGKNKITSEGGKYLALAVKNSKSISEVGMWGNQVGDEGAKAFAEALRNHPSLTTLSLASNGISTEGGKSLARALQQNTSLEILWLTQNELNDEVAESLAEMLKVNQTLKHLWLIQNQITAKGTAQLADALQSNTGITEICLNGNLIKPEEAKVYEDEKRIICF
- test-name: Antagonist activity at human NOD1 expressed in HEK-blue cells assessed as inhibition of C12-iE-DAP-stimulated cell activation preincubated for 3 hrs followed by C12-iE-DAP addition measured after 20 hrs by SEAP reporter gene assay
Quick note: pIC50 means taking -log10 of the concentration in moles per liter.

>>> df
                           molecular_string  metric_name  value
0  CCN(CC)C(=O)CC[C@H]1NC(=O)c2cc(Oc3cccc(N(C)C)c3)c(NC(=O)COCc3ccccc3)cc2NC1=O        pIC50   5.90
1  CCCCNC(=O)CC[C@H]1NC(=O)c2cc(Oc3cccc(N(C)C)c3)c(NC(=O)COCc3ccccc3)cc2NC1=O        pIC50   5.89
2  COC(=O)CC[C@H]1NC(=O)c2cc(Oc3cccc(N(C)C)c3)c(NC(=O)COCc3cccc(Cl)c3)cc2NC1=O        pIC50   5.89

Here is the next item to consider.
Prompt line: For the compound COC(=O)CC[C@@H]1NC(=O)c2cc(Oc3cccc(N(C)C)c3)c(NC(=O)COCc3ccc(C(F)(F)F)cc3)cc2NC1=O , report pIC50.
Response line: 6.24
